- TEST NAME: yeast display, Sf9 membrane polyspecificity reagent, FACS + sequencing; frameworks hold sequencing errors
MEASURED QUANTITY: polyreactivity (PSR sort gate)

Worked examples follow.
QVQLVESGGGLVQAGGSLRLSCPASGNIFLSYAMGWYRQAPGKERELVAGISASGGRTYYADSVKGRFTISRDNAKNTVYLQMNSLKPEDTAVYYCATRGQTRTTTRYYSWGQGTQVTVSS    high polyreactivity
QVQLVESGGGLVQAGGSLRLSCAASGRIFYFNAMGWYRQAPGKERELVATITYIGGSTHYADSVKGRFTISRDNAKNTVYLQMNSLKPEDTAVYYCAVRDGKDTDTYWYGSWGQGTQVTVSS    low polyreactivity
QVQLVESGGGLVQAGGSLRLSCAASGSTFEYNAMGWYRQAPGKERELVASSTNYAEAVKGRFTISRDNAKNTVYLQMNCLKPVDTAVYYCAREQGVNRNHDYWGQGTQVTVSS    low polyreactivity
QDQLVESGGGLVQAGGSLRLSCAASGFTFHNNVMGWYRQAPGKERELVATISKSGGSTYYADSVKGRITISRDNAKNTVYLQMNSLKPEDTAVYYCARRYRDYGRYGYWGQGTQVTVSS    high polyreactivity

Data request: Value lookup for polyreactivity (PSR sort gate); key = `QVQLVESGGGLVQAGGSLRLSCAASGSIFGNYVMGWYRQAPGKERELVAAITSDGSTYYADSVKGRFTISRDNAKNTVYLQMNSLKPEDTAVYYCNAVYEGLQSRWYKGGLYSFDYWGQGTQVTVSS`
Data returned: low polyreactivity
